compounds and their reported Ki
Target: MCH receptor (Homo sapiens, UniProt Q99705)
Construct: expressed in transfected cells; host or cells: CHO cells (membrane preparation)
Sequence (Q99705 whole entry): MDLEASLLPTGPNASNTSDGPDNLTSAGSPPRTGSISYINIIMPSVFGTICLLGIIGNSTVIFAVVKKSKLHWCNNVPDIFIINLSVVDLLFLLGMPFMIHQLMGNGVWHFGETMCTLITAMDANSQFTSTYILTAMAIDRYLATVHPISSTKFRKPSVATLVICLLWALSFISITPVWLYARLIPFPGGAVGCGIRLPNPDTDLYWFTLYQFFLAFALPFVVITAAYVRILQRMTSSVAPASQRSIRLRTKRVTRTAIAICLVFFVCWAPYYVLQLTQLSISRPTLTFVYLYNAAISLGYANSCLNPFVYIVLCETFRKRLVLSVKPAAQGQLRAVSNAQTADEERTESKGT
Test: MCH receptor binding assay ([125I]-MCH, SPA)
Conditions: membranes from CHO cells expressing the MCH receptor, read-out: Class (Ki)

Ki recorded for this compound, NCc1ncc([C@]23CC[C@@H](N(CCCN4CC[C@H](O)C4)C(=O)Nc4ccc(F)c(C(F)(F)F)c4)C2C3)s1 (stereo partly drawn) , is 0.03 to 0.1 µM

Record O=C(Nc1ccc(F)c(Cl)c1)N(CCN1CCCC1)C1CC=C(c2ccc(CN3CCC3)s2)CC1 (stereo not drawn) , field Ki: > 0.1 µM

Reported Ki ( CNCc1ccc(C2=CCC(N(CCN3CCCC3)C(=O)Nc3ccc(F)c(Cl)c3)CC2)s1 (stereo not drawn) ) = < 0.03 µM

Origin of measurements: patent US7361769B2
